The measured values listed here are drawn from patent US10882837B2.

molecular target: GCGR (Homo sapiens, UniProt P47871); test: I125-glucagon binding assay (competition, GCGR membrane fractions); set-up: expressed in transfected cells; host or cells: CHO-K1; settings: competition with I125-glucagon 0.0625 nM; membrane fractions from GCGR overexpressed CHO-K1 cells
endpoint.name: pIC50
// pIC50 here means minus log10 of the molar concentration (mol/L)

molecule: CCOC(=O)CCNC(=O)c1ccc(NC(c2ccc(-c3nnc(-c4ccc(F)cc4)o3)cc2)C(C)C)cc1 (stereo not shown)
pIC50: 5.45
--
molecule: CC(C)C(Nc1ccc(C(=O)NCCC(=O)O)cc1)c1ccc(-c2noc(-c3ccc(F)cc3)n2)cc1 (stereo not shown)
pIC50: 7.24
--
molecule: CCCC[C@@H](Nc1ccc(C(=O)NCCC(=O)OCC)cc1)c1ccc(-c2noc(-c3ccccc3)n2)cc1
pIC50: 7.40
--
molecule: O=C(O)CCNC(=O)c1ccc(NC(c2ccc(-c3noc(-c4ccccc4)n3)cc2)C2CCCCC2)cc1 (stereo not shown)
pIC50: 7.27
--
molecule: CCCC[C@H](Nc1ccc(C(=O)NCCC(=O)OCC)cc1)c1ccc(-c2nnc(C(F)(F)F)o2)cc1
pIC50: 5.21

Query: Please report pIC50 for the following molecule: CC(C)C(Nc1ccc(C(=O)NCCC(=O)O)cc1)c1ccc(-c2noc(-c3ccccc3)n2)cc1 (stereo not shown)
Response: 7.40

Query: Please report pIC50 for the following molecule: CCCC[C@@H](Nc1ccc(C(=O)NCCC(=O)O)cc1)c1ccc(-c2noc(-c3ccccn3)n2)cc1
Response: 5.99

====

Molecular target: glucagon receptor (GCGR) (Homo sapiens, UniProt P47871)
Sequence (P47871 26-477, species assumed): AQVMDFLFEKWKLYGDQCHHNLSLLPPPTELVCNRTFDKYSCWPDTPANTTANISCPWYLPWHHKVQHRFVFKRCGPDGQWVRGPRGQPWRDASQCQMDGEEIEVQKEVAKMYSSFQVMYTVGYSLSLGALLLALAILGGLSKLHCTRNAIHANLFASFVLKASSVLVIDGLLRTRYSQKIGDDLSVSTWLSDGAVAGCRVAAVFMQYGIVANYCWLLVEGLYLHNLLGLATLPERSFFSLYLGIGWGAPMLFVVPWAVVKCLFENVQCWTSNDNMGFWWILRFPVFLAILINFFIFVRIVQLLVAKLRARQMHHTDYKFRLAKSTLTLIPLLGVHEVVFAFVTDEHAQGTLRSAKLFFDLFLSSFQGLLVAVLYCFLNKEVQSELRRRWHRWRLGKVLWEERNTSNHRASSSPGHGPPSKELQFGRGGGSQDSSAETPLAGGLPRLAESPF
Assay: Glucagon cAMP inhibition assay (Cisbio cAMP Dynamic 2 HTRF)
Conditions: GCGR overexpressed CHO-K1 cells or human primary hepatocytes (not specified); glucagon at EC50
Method: Glucagon eAMP Inhibition Assay Downstream secondary messenger eAMP induced by glucagon was detected by Cisbio cAMP Dynamic 2 kit. Testing compounds were each prepared as a dimethyl sulfoxide (DMSO) solution at the concentration of 10 mM. […] After incubation, lysis buffer contain cAMP antibody and fluorescence acceptor were added into each well for additional 60 minutes incubation. […]
Response field label takes Yes when IC50 is strictly below 300 nM and No in all other cases.

molecule: COC(=O)CCNC(=O)c1ccc(NC(c2ccc(-c3noc(-c4ccccc4)n3)cc2)C(C)C)cc1 (stereo not drawn)
target.under.test: glucagon receptor (GCGR) (Homo sapiens, UniProt P47871)
class.name: Yes

molecule: COC(=O)CCNC(=O)c1ccc(N[C@H](c2ccc(-c3noc(-c4ccccc4)n3)cc2)C(C)C)cc1
target.under.test: glucagon receptor (GCGR) (Homo sapiens, UniProt P47871)
class.name: Yes

molecule: CCCC[C@H](Nc1ccc(C(=O)NCCC(=O)OCC)cc1)c1ccc(-c2nc(-c3ccccc3)no2)cc1
target.under.test: glucagon receptor (GCGR) (Homo sapiens, UniProt P47871)
class.name: Yes

molecule: CC(C)CC(Nc1ccc(C(=O)NCCC(=O)O)cc1)c1ccc(-c2noc(-c3ccccc3)n2)cc1 (stereo not drawn)
target.under.test: glucagon receptor (GCGR) (Homo sapiens, UniProt P47871)
class.name: No

molecule: CCCCC(Nc1ccc(C(=O)NCCS(=O)(=O)O)cc1)c1ccc(-c2nnc(-c3ccccc3)o2)cc1 (stereo not drawn)
target.under.test: glucagon receptor (GCGR) (Homo sapiens, UniProt P47871)
class.name: No

molecule: CCOC(=O)CCNC(=O)c1ccc(N[C@@H](c2ccc(-c3nnc(-c4ccccc4)o3)cc2)C(C)C)cc1
target.under.test: glucagon receptor (GCGR) (Homo sapiens, UniProt P47871)
class.name: Yes

molecule: CCOC(=O)CCNC(=O)c1ccc(N[C@H](c2ccc(-c3nc4ccccc4s3)cc2)C(C)C)nc1
target.under.test: glucagon receptor (GCGR) (Homo sapiens, UniProt P47871)
class.name: Yes

molecule: CCOC(=O)CCNC(=O)c1ccc(N[C@@H](c2ccc(-c3nc4ccccc4o3)cc2)C2CCCC2)cc1
target.under.test: glucagon receptor (GCGR) (Homo sapiens, UniProt P47871)
class.name: Yes

Query: Threshold test, IC50 < 300 nM: CC(C)C(Nc1ccc(C(=O)NCCC(=O)O)cc1)c1ccc(-c2nnc(C(F)(F)F)o2)cc1 (stereo not drawn)
Response: No

Query: Threshold test, IC50 < 300 nM: CC(C)CC(Nc1ccc(C(=O)NCCC(=O)O)cc1)c1ccc(-c2nnc(-c3ccccc3)o2)cc1 (stereo not drawn)
Response: No

Query: Threshold test, IC50 < 300 nM: CCCCC(Nc1ccc(-c2nnc(-c3ccccc3)o2)cc1)c1ccc(C(=O)NCCC(=O)O)cc1 (stereo not drawn)
Response: No

====

molecular target: GCGR (Homo sapiens); assay: I125-glucagon binding assay (competition, GCGR membrane fractions); design: expressed in transfected cells; host or cells: CHO-K1; conditions: competition with I125-glucagon 0.0625 nM; membrane fractions from GCGR overexpressed CHO-K1 cells
endpoint.name: pIC50
// pIC50 here means minus log10 of the molar concentration (mol/L)

Guide cases for pIC50, answers given:
molecule: CC(C)C[C@@H](Nc1ccc(C(=O)NCCC(=O)O)cc1)c1ccc(-c2noc(-c3ccccc3)n2)cc1
pIC50: 6.70
--
molecule: O=C(O)CCNC(=O)c1ccc(N[C@@H](c2ccc(-c3nc4ccccc4o3)cc2)C2CCCC2)cc1
pIC50: 7.62
--
molecule: COc1ccc(-c2nnc(-c3ccc(C(Nc4ccc(C(=O)NCCC(=O)O)cc4)C(C)C)cc3)o2)cc1 (stereo not shown)
pIC50: 6.70
--
molecule: CCCCC(Nc1ccc(-c2nnc(-c3ccccc3)o2)cc1)c1ccc(C(=O)NCCC(=O)OCC)cc1 (stereo not shown)
pIC50: 5.88
--
molecule: CCOC(=O)CCNC(=O)c1ccc(N[C@H](c2ccc(-c3noc(-c4ccccc4)n3)cc2)C(C)CC)cc1 (stereo partly shown)
pIC50: 6.08

Query: Please report pIC50 for the following molecule: CC(C)C(Nc1ccc(C(=O)NCCC(=O)O)cc1)c1ccc(-c2nc3ccccc3o2)cc1 (stereo not shown)
Response: 7.47

Query: Please report pIC50 for the following molecule: CCC(C)[C@@H](Nc1ccc(C(=O)NCCC(=O)O)cc1)c1ccc(-c2noc(-c3ccccc3)n2)cc1 (stereo partly shown)
Response: 7.07

====

molecular target: UniProt:P47871; assay: Glucagon cAMP inhibition assay (Cisbio cAMP Dynamic 2 HTRF); details: GCGR overexpressed CHO-K1 cells or human primary hepatocytes (not specified); glucagon at EC50
Response field label takes Fulfilled when IC50 is strictly below 200 nM and Not fulfilled in all other cases.

Some solved entries appear below for comparison.
compound: CCOC(=O)CCNC(=O)c1ccc(N[C@H](c2ccc(-c3noc(-c4ccccc4)n3)cc2)C(C)C)cc1
class.name: Fulfilled
--
compound: CCOC(=O)CCNC(=O)c1ccc(N[C@H](c2ccc(-c3nc4ccccc4o3)cc2)C(C)C)nc1
class.name: Fulfilled
--
compound: CCC(C)[C@H](Nc1ccc(C(=O)NCCC(=O)O)cc1)c1ccc(-c2nc(-c3ccccc3)no2)cc1 (stereo partly shown)
class.name: Not fulfilled
--
compound: CCOC(=O)CCNC(=O)c1ccc(N[C@@H](c2ccc(-c3nnc(C(F)(F)F)o3)cc2)C(C)CC)cc1 (stereo partly shown)
class.name: Not fulfilled

Query: Threshold test, IC50 < 200 nM: CC(C)C(Nc1ccc(C(=O)NCCC(=O)O)cc1)c1ccc(-c2nnc(-c3ccc(F)cc3)o2)cc1 (stereo not shown)
Response: Not fulfilled

Query: Threshold test, IC50 < 200 nM: CC(C)C(Nc1ccc(C(=O)NCCC(=O)O)cc1)c1ccc(-c2nnc(C(C)(C)C)o2)cc1 (stereo not shown)
Response: Not fulfilled

====

molecular target: GCGR (Homo sapiens); experiment: I125-glucagon binding assay (competition, GCGR membrane fractions); set-up: expressed in transfected cells; host or cells: CHO-K1; conditions: competition with I125-glucagon 0.0625 nM; membrane fractions from GCGR overexpressed CHO-K1 cells
The compounds listed here are annotated with their IC50.
Note: unit nM is implicit; provide only the numeric part.

Guide cases for IC50, answers given:
compound: CC(C)C(Nc1ccc(C(=O)NCCC(=O)O)cc1)c1ccc(-c2noc(C(C)(C)C)n2)cc1 (stereo not drawn) [Compound 2-2]
test.result: 171
--
compound: CCOC(=O)CCNC(=O)c1ccc(N[C@H](c2ccc(-c3nc(-c4ccccc4)no3)cc2)C(C)CC)cc1 (stereo partly drawn) [Compound 5-5]
test.result: 876
--
compound: CCOC(=O)CCNC(=O)c1ccc(NC(c2ccc(-c3nnc(-c4ccccc4)o3)cc2)C(C)C)cc1 (stereo not drawn) [Compound 1-3]
test.result: 1870
--
compound: CCC(C)[C@@H](Nc1ccc(C(=O)NCCC(=O)O)cc1)c1ccc(-c2nc3ccccc3o2)cc1 (stereo partly drawn) [Compound 4-22]
test.result: 60
--
compound: CC(C)CC(Nc1ccc(C(=O)NCCC(=O)O)cc1)c1ccc(-c2noc(C(C)(C)C)n2)cc1 (stereo not drawn) [Compound 2-6]
test.result: 226
--
compound: CC(C)C(Nc1ccc(-c2nnc(-c3ccc(F)cc3)o2)cc1)c1ccc(C(=O)NCCC(=O)O)cc1 (stereo not drawn) [Compound 3-10]
test.result: 143
--
compound: CCOC(=O)CCNC(=O)c1ccc(NC(c2ccc(-c3nc4ccccc4o3)cc2)C(C)C)cc1 (stereo not drawn) [Compound 4-1]
test.result: 968
--
compound: CC(C)[C@H](Nc1ccc(C(=O)NCCC(=O)O)cc1)c1ccc(-c2nc3ccccc3o2)cc1 [Compound 4-7]
test.result: 20

Query: Please report IC50 for the following compound: CCOC(=O)CCNC(=O)c1ccc(C(Nc2ccc(-c3nnc(-c4ccc(F)cc4)o3)cc2)C(C)CC)cc1 (stereo not drawn) [Compound 3-7]
Response: 246

Query: Please report IC50 for the following compound: CC(C)[C@H](Nc1ccc(C(=O)NCCC(=O)O)cn1)c1ccc(-c2nc3ccccc3s2)cc1 [Compound 4-28]
Response: 47.7

Query: Please report IC50 for the following compound: CCCC[C@@H](Nc1ccc(C(=O)NCCC(=O)O)cc1)c1ccc(-c2noc(-c3ccccc3)n2)cc1 [Compound 2-36]
Response: 199
